Attribution: the supplement of paper PMC6335503

- System: DFTD cell line T1 (06/2887)
- assay: cell viability, percent of DMSO control (CellTiter-Glo); higher = more viable cells
- condition-parameters: 13.5 µM; 72 h
Measured cell viability accompanies every entry in the list below.

Solved entries:
compound="Cn1cnc2c(F)c(Nc3ccc(Br)cc3Cl)c(C(=O)NOCCO)cc21.O=S(=O)(O)O [Selumetinib (AZD6244)]" result=33.4%
compound="COc1cc2ncnc(Nc3ccc(O)c(Br)c3)c2cc1OC [WHI-P154]" result=21.8%
compound="CS(=O)(=O)CCNCc1ccc(-c2ccc3ncnc(Nc4ccc(OCc5cccc(F)c5)c(Cl)c4)c3c2)o1.Cc1ccc(S(=O)(=O)O)cc1.Cc1ccc(S(=O)(=O)O)cc1.O [Lapatinib ditosylate monohydrate]" result=17.9%
compound="COc1cc2ncnc(Nc3cccc(Cl)c3)c2cc1OC [AG-1478]" result=28.9%

INPUT: Lab note: need cell viability with DFTD cell line T1 (06/2887) for entry COc1cc2ncnc(Nc3cccc(Cl)c3F)c2cc1OC(=O)N1CCN(C)C[C@H]1C [AZD3759] , please look it up.
OUTPUT: 31.5%

INPUT: Lab note: need cell viability with DFTD cell line T1 (06/2887) for entry CS(=O)(=O)CCNCc1ccc(-c2ccc3ncnc(Nc4ccc(OCc5cccc(F)c5)c(Cl)c4)c3c2)o1.Cc1ccc(S(=O)(=O)O)cc1 , please look it up.
OUTPUT: 31.8%

INPUT: Lab note: need cell viability with DFTD cell line T1 (06/2887) for entry C=CC(=O)Nc1cc2c(Nc3ccc(F)c(Cl)c3)ncnc2cc1OCCCN1CCOCC1 [Canertinib (CI-1033)] , please look it up.
OUTPUT: 8.82%
